Test system: Epac1 (Homo sapiens)
Construct: made in house
Sequence (O95398 150-881 isoform O95398-3): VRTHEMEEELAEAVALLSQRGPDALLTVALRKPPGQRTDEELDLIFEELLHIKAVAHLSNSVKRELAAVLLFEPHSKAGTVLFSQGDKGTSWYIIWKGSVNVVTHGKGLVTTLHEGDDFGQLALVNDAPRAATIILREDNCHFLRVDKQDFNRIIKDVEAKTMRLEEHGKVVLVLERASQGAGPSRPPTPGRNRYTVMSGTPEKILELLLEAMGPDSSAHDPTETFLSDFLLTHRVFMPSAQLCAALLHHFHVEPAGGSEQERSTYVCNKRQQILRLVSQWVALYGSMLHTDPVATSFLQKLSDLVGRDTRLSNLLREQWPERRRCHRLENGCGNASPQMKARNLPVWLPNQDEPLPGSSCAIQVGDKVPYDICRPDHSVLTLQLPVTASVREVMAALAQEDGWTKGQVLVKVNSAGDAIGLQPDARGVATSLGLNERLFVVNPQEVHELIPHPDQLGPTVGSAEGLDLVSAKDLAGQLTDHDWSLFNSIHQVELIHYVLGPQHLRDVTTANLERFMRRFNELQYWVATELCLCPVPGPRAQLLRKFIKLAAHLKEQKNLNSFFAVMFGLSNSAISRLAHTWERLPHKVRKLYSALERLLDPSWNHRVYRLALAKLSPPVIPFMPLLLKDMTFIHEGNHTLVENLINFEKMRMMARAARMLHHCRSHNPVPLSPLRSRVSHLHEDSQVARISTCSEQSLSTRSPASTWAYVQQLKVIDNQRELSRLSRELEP
Assay procedure: Epac activation assay, Epac1
Format: biochemical
Run parameters: 1 μM compound
Readout: kobs (s⁻¹)
Give a bare numeral; the unit s⁻¹ is implied.

Use the examples below as a reference point.
# Molecule, kobs (s⁻¹)
measured = [
    ("COC1C2OP(=O)(O)OCC2OC1n1c(Sc2ccc(Cl)cc2)nc2c(N)ncnc21 [D-007, 8-pCPT-2′-O-Me-cAMP, reference compound]", 0.00137),
    ("Cc1ccc(CSc2nc3c(N)ncnc3n2[C@@H]2O[C@@H]3CO[P@](O)(=S)O[C@H]3[C@H]2O)cc1", "1.4e-05"),
    ("Nc1ncnc2c1nc(SCc1ccccc1)n2[C@@H]1O[C@@H]2CO[P@](O)(=S)O[C@H]2[C@H]1O", "4.3e-05"),
]

**Query** Give the measured kobs of Nc1ncnc2c1ncn2[C@@H]1O[C@@H]2COP(=O)(O)O[C@H]2[C@H]1O [cAMP, reference compound] .
**Result** 5e-05

* * *

Test system: Epac2^Δ280 (Mus musculus, UniProt Q9EQZ6)
Construct: made in house
Sequence (Q9EQZ6 299-1011, stated change not applied): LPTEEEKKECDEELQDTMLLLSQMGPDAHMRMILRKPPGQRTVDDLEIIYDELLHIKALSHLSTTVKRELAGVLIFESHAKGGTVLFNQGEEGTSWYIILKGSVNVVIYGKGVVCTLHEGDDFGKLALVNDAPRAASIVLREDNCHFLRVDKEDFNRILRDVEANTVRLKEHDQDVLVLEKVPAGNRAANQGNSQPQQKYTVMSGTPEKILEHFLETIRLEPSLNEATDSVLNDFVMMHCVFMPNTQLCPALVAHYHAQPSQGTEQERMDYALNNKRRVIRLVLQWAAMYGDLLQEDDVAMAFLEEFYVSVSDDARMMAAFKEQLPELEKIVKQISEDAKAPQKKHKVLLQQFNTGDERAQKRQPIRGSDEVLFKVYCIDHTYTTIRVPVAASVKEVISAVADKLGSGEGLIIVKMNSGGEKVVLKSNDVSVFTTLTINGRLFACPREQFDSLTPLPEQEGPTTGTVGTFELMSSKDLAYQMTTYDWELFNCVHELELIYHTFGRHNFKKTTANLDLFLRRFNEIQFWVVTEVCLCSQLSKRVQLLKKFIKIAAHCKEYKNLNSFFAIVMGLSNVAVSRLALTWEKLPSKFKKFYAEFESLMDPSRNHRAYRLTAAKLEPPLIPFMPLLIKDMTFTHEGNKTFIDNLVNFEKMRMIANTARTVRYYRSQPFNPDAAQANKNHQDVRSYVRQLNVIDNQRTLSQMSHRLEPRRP
Assay procedure: Epac activation assay (Rap1B•mGDP fluorescence nucleotide exchange), Epac2^Δ280
Format: biochemical
Run parameters: 0.5 μM compound
Catalogue of compounds with associated kobs
Give a bare numeral; the unit s⁻¹ is implied.

# Compound, Test system, Unit text, Reading
records = [
    ("Nc1ncnc2c1ncn2C1OC2COP(O)(=S)OC2C1O (stereo not shown)", "Epac2^Δ280 (Mus musculus, UniProt Q9EQZ6)", "s⁻¹", 0.000139),
    ("Nc1ncnc2c1nc(SCc1ccccc1)n2[C@@H]1O[C@@H]2CO[P@](O)(=S)O[C@H]2[C@H]1O", "Epac2^Δ280 (Mus musculus, UniProt Q9EQZ6)", "s⁻¹", 0.00155),
    ("Cc1ccc(CSc2nc3c(N)ncnc3n2[C@@H]2O[C@@H]3CO[P@](O)(=S)O[C@H]3[C@H]2O)cc1", "Epac2^Δ280 (Mus musculus, UniProt Q9EQZ6)", "s⁻¹", 0.000361),
]

Would you kindly look at the next entry?
**Query** Give the measured kobs of Nc1ncnc2c1ncn2[C@@H]1O[C@@H]2COP(=O)(O)O[C@H]2[C@H]1O [cAMP, reference compound] .
**Result** 0.000111
